Parameter MFI (solvent ratio): see the listing below.
# Target or test system: T1, HLA-A*24:02 (human)
# T1 construct: whole, on cells; MHC class I molecule, empty until peptide is added; detected with FITC anti-HLA-A24 antibody 17A10
# Protocol summary: MHC class I stabilization on T2-A24 cells, flow cytometry, 100 ug/mL peptide

ALVMDIFTDV [FAM83B-derived peptide F151_10]; 1 ratio to solvent
VYILLDESNF [FAM83B-derived peptide F176_10]; 2.7 ratio to solvent
FLAEEEINYIL [FAM83B-derived peptide F55_11]; 1 ratio to solvent
SYQPNENKF (also called FAM83B peptide) [FAM83B-derived peptide SF_9]; 2.3 ratio to solvent

# MFI (solvent ratio) (binder: LYARSCVPSSF [FAM83B-derived peptide F276_11] ) is 3.4 ratio to solvent

# MFI (solvent ratio) (binder: TYQHSVSSL [FAM83B-derived peptide F305_9] ) is 2.4 ratio to solvent

# MFI (solvent ratio) (binder: GWPYVMPGLL [FAM83B-derived peptide F107_10] ) is 2.7 ratio to solvent

# MFI (solvent ratio) (binder: TLSSGTYWPV [FAM83B-derived peptide F86_10] ) is 1 ratio to solvent

# MFI (solvent ratio) (binder: MVQIITGQLV [FAM83B-derived peptide F257_10] ) is 1.1 ratio to solvent

# MFI (solvent ratio) (binder: RLCSSSDTLV [FAM83B-derived peptide F799_10] ) is 1.2 ratio to solvent
